Target: T1, human TREM2 (human, UniProt Q9NZC2 19-174, limits assumed)
T1 construct: also called triggering receptor expressed on myeloid cells 2
T1 sequence: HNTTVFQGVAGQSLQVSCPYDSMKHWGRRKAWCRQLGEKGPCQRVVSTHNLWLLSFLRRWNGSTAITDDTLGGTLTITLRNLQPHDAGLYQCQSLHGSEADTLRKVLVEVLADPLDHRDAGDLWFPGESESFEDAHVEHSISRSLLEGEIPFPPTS
Experiment: 2nd screen 2 nM
measured-quantity: Binding Signal (fold over 6E7 Parental antibody) (fold)
Please give a number only; it is taken to be in fold.

Past entries and their recorded results:
{"binder": "V86 (antibody, V domains shown) VH: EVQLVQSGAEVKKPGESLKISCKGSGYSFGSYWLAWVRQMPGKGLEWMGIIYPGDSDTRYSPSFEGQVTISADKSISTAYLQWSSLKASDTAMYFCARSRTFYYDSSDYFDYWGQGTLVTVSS VL: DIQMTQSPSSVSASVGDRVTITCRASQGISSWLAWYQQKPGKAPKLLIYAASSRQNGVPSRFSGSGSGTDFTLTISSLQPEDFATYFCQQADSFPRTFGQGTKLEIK", "value-measured": 5.17}
{"binder": "V24 (antibody, V domains shown) VH: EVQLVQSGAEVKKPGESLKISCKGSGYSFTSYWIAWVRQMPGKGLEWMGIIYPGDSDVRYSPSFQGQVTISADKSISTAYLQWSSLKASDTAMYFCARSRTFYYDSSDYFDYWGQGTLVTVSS VL: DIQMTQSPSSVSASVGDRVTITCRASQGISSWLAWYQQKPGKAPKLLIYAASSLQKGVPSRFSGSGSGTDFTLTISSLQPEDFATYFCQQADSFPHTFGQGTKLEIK", "value-measured": 1.42}
{"binder": "V4 (antibody, V domains shown) VH: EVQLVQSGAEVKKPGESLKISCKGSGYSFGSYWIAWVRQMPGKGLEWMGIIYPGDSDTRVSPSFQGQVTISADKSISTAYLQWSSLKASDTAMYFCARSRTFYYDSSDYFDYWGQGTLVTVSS VL: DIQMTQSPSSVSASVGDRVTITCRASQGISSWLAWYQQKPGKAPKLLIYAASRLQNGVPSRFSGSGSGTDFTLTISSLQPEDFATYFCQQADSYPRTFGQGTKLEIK", "value-measured": 5.88}

Please find the next binder below.
Please report Binding Signal (fold over 6E7 Parental antibody) for the following binder: V5 (antibody, V domains shown) VH: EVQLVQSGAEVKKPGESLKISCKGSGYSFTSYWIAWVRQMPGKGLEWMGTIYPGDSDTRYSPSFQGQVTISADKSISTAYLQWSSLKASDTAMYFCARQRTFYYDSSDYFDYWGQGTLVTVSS VL: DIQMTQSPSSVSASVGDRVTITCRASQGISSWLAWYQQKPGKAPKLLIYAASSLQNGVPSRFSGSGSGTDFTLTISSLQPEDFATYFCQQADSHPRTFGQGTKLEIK
1.25
